System: SEM cells
ASSAY: cell viability relative to DMSO control; higher = less cytotoxic
EXPERIMENTAL_CONDITIONS: RPMI 5 mM glucose + 10% FBS; 48 h; 0.00702 µM
Listed molecules paired with reported cell viability
Respond with the bare value in %.

Sample records with cell viability:
O=C1CCCC(=O)C1C(=O)c1ccc(C(F)(F)F)cc1[N+](=O)[O-]: 112
NC[C@H]1O[C@H](O[C@H]2[C@H](O)[C@@H](O[C@H]3O[C@H](CO)[C@@H](O)[C@H](N)[C@H]3O)[C@H](N)C[C@@H]2N)[C@H](N)C[C@@H]1O: 106
Nc1nc(N)c(N=O)c(OCC2CCCCC2)n1: 56.6
C[C@@H](N)C1CC[C@@H](CC1)C(=O)NC2=CC=NC=C2 (some centres undefined): 99.8
CN(C)[C@@H](CCOc1cccc2ccccc12)c1ccccc1: 122
N=C(N)NC(=N)N1CCOCC1: 99.7
CCOC(=O)N[C@@H]1CC[C@@H]2[C@@H](C1)C[C@H]1C(=O)O[C@H](C)[C@H]1[C@H]2/C=C/c1ccc(-c2cccc(F)c2)cn1: 98.5
Cc1ccc([S+](=O)([O-])Nc2cc(Cl)ccc2C(=O)Nc2nc(-c3ccccc3)cs2)cc1: 109

Problem: For the molecule shown here, O=C(NCc1ccccc1)c1csc(Nc2ccncn2)n1 , give the reported cell viability.
Result: 99.5

Problem: Given the molecule O=C(NCC1CCOCC1)c1cnc(Nc2ccc(Cl)cc2Cl)nc1C(F)(F)F , what is its reported cell viability?
Result: 108

Problem: Endpoint output: cell viability of Clc1ccccc1C(c1ccccc1)(c1ccccc1)n1ccnc1 . Value?
Result: 126

Problem: What does the data say about its cell viability? Entry: C[N+]1(C)[C@@H]2CC(OC(=O)C(O)(c3cccs3)c3cccs3)C[C@H]1[C@@H]1O[C@@H]12 (some centres undefined)
Result: 92.6

Problem: # input molecule: OC[C@H]1OC(OC2=CC3=C(C(=C2)O)C(=O)\C(=C/O3)C4=CC=C(O)C=C4)[C@H](O)[C@@H](O)[C@@H]1O (some centres undefined) ; wanted: its cell viability
Result: 111

Problem: GET /values?readout=cell viability&item= CCOCC(O)COc1ccc(NC(=O)CC[S+](C)C)cc1 (centres undefined)
Result: 85.9

Problem: Sample CC(C)(O)C(=O)Nc1ccc([N+](=O)[O-])c(C(F)(F)F)c1 — what was its cell viability?
Result: 91.9

Measured values drawn from the supplement of paper PMC11451515 for this set.
